Please respond with reported EC5X for every item in the list.
- subject-of-test: Glutamate receptor ionotropic, AMPA (Rattus norvegicus) (UniProt P19491+P19492+P19493+P19490)
- assay-info: concentration of drug giving a 5-fold increase of the magnitude of the current induced by Ionotropic glutamate receptor AMPA (30 uM) and measured in Xenopus Oocytes expressing Rat Cortex AMPA Receptors
- Type: functional, cell-based

Query block: Query EC5X for CC1=Nc2ccc(Cl)cc2S(=O)(=O)N1 [DIAZOXIDE]
Result block: > 1000 µM

Query block: Look up and state reported EC5X for CCCN1CN(C)c2ccncc2S1(=O)=O
Result block: > 1000 µM

Query block: Identify measured EC5X associated with CN1CN(C)S(=O)(=O)c2ncccc21
Result block: 133 µM

Query block: Could you please provide reported EC5X for CC1=NS(=O)(=O)c2cccnc2N1C ? Thanks!
Result block: > 1000 µM

Query block: # return recorded EC5X for entry CN1CNS(=O)(=O)c2ncccc21
Result block: 51 µM

Query block: Please look at this molecule and report its EC5X: O=S1(=O)c2cnccc2NCN1c1ccccc1
Result block: > 100 µM

Query block: Hello, please tell me recorded EC5X for this one: NC1=NS(=O)(=O)c2cnccc2N1
Result block: > 1000 µM

Query block: Kindly indicate its recorded EC5X. Item: CCN1C=NS(=O)(=O)c2ncccc21
Result block: 186 µM

Query block: Item CC(C)N1CNc2ccncc2S1(=O)=O : provide EC5X
Result block: > 300 µM

Query block: Return reported EC5X. Input molecule: CC1Nc2ccncc2S(=O)(=O)N1 (stereo not given)
Result block: > 1000 µM

Query block: Output EC5X of CCCNC1=NS(=O)(=O)c2cnccc2N1
Result block: > 1000 µM

Query block: Look up and state reported EC5X for CCCCN1CNS(=O)(=O)c2cnccc21
Result block: > 1000 µM

Query block: # return recorded EC5X for entry CC1Nc2ncccc2S(=O)(=O)N1 (stereo not given)
Result block: > 1000 µM

Query block: State its EC5X: O=S1(=O)NCN(CC(F)(F)F)c2ccncc21
Result block: 215 µM

Query block: Answer with reported EC5X of CC(C)N1CN(C)S(=O)(=O)c2cnccc21
Result block: > 1000 µM

Query block: Indicate the recorded EC5X value for this molecule: O=S1(=O)N=CNc2ncccc21
Result block: > 1000 µM

Query block: Tell me measured EC5X for CN1CNc2ccncc2S1(=O)=O please.
Result block: > 1000 µM

Query block: Please list EC5X recorded for the molecule CCC(CC)C1Nc2ccncc2S(=O)(=O)N1 (stereo not given)
Result block: > 1000 µM

Query block: Answer with the recorded EC5X of O=S1(=O)N=CNc2cccnc21 only.
Result block: > 1000 µM

Query block: Supply measured EC5X of CC1=NS(=O)(=O)c2cnccc2N1 in your reply.
Result block: > 1000 µM

Query block: Return EC5X for the following molecule: CC1=NS(=O)(=O)c2cnccc2N1C(C)C
Result block: 1200 µM

Query block: Let me know recorded EC5X for CC(C)N1CNS(=O)(=O)c2ncccc21 , thanks.
Result block: 41 µM

Query block: // fetch EC5X given entry O=S1(=O)c2cnccc2NCN1C1CCCCC1
Result block: > 100 µM

Query block: Dear colleague, please send me the reported EC5X for CC1=NS(=O)(=O)c2cnccc2N1C when you can.
Result block: 800 µM

Query block: Respond only with EC5X recorded for O=S1(=O)N=C(C(F)(F)F)Nc2ccncc21
Result block: > 1000 µM

Query block: Query EC5X for CCCC1Nc2ccncc2S(=O)(=O)N1 (stereo not given)
Result block: > 1000 µM

Query block: Tell me EC5X reported for CCCN1CNS(=O)(=O)c2cnccc21
Result block: 805 µM

Query block: // Input: CC1=NS(=O)(=O)c2ncccc2N1 . Output its EC5X only.
Result block: 900 µM

Query block: Look up and report measured EC5X for this entry: O=S1(=O)NCNc2ccncc21
Result block: > 1000 µM

Query block: Quick one: give measured EC5X for O=S1(=O)N=CNc2ccncc21
Result block: > 1000 µM
